Target protein (sequence): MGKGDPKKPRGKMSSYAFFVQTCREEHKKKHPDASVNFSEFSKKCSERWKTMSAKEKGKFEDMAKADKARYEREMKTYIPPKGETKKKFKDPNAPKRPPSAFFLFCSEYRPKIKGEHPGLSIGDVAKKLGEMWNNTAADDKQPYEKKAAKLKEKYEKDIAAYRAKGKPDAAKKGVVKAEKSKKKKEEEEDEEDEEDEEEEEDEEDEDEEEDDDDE
pKd: −log10 of the molar value.
assay.readout: pKd

COc1ccc(-c2coc3cc(O)ccc3c2=O)cc1O [CALYCOSIN] :: 6.92

This collection of values is drawn from ChEMBL document CHEMBL6078690.
